- method summary: Oral bioavailability in rat at 3.8 mg/kg
- Format: ADME, organism-based
- assay conditions: in vivo
property measured: bioavailability
Be sure to follow the number with its unit.

The reported value for CC(C)N(Cc1cnc[nH]1)c1ccc(Cl)cc1 in terms of bioavailability is 66%

* * *

- method summary: Fraction unbound in rat plasma
- Type: ADME, cell-free
property measured: fraction unbound
Just the number, please, no unit attached.

The reported value for CC(C)N(Cc1cnc[nH]1)c1ccc(Cl)cc1 in terms of fraction unbound is 0.06

* * *

- method summary: Permeability of the compound by PAMPA assay
- Format: ADME
- assay conditions: read-out: permeability
property measured: Papp (×10⁻⁶ cm/s)
# unit: ×10⁻⁶ cm/s | format: bare number

The reported value for CC(C)N(Cc1cnc[nH]1)c1ccc(Cl)cc1 in terms of Papp is 2.7

* * *

- target entity: Trace amine-associated receptor 1 (Rattus norvegicus, UniProt Q923Y9)
- Sequence (Q923Y9 whole entry): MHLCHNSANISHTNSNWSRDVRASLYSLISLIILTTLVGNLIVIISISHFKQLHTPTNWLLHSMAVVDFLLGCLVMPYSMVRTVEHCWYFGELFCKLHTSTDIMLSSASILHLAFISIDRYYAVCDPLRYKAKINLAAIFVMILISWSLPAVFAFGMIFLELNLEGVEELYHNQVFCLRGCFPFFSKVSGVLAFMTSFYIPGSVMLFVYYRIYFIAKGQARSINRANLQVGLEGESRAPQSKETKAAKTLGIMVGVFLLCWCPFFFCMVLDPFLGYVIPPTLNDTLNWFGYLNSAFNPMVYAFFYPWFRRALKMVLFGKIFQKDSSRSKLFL
- method summary: Agonist activity at rat TAAR1 receptor expressed in HEK293 cells after 30 mins
property measured: pEC50
Reminder that pEC50 is minus the log10 of a molar concentration.

Entry COc1cccc(N(Cc2cnc[nH]2)C(C)C)n1 : pEC50 on Trace amine-associated receptor 1 (Rattus norvegicus, UniProt Q923Y9) = 7.60

***
Entry CC(C)N(Cc1cnc[nH]1)c1cccc(Cl)c1 : pEC50 on Trace amine-associated receptor 1 (Rattus norvegicus, UniProt Q923Y9) = 7.57

Entry CC(C)N(Cc1ncc[nH]1)c1cccc(Cl)c1 : pEC50 on Trace amine-associated receptor 1 (Rattus norvegicus, UniProt Q923Y9) = 6.40

Entry CC(C)N(Cc1cnc[nH]1)c1ccc(Cl)cc1 : pEC50 on Trace amine-associated receptor 1 (Rattus norvegicus, UniProt Q923Y9) = 7.60

Entry CC(C)N(Cc1cnc[nH]1)c1ccccc1 : pEC50 on Trace amine-associated receptor 1 (Rattus norvegicus, UniProt Q923Y9) = 8.14

Entry COc1cccc(N(Cc2cnc[nH]2)C(C)C)c1 : pEC50 on Trace amine-associated receptor 1 (Rattus norvegicus, UniProt Q923Y9) = 7.21
